These entries and their values trace back to paper PMC4336329.

Here the recorded hERG current change (%, negative = inhibition) at 10uM is given for each entry.
# target under test: human ether-à-go-go-related gene (hERG) potassium channel (human, UniProt Q12809);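 note: peak tail current of the secondary pulse compared with the same well before compound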
# Sequence (Q12809 whole entry, looked up): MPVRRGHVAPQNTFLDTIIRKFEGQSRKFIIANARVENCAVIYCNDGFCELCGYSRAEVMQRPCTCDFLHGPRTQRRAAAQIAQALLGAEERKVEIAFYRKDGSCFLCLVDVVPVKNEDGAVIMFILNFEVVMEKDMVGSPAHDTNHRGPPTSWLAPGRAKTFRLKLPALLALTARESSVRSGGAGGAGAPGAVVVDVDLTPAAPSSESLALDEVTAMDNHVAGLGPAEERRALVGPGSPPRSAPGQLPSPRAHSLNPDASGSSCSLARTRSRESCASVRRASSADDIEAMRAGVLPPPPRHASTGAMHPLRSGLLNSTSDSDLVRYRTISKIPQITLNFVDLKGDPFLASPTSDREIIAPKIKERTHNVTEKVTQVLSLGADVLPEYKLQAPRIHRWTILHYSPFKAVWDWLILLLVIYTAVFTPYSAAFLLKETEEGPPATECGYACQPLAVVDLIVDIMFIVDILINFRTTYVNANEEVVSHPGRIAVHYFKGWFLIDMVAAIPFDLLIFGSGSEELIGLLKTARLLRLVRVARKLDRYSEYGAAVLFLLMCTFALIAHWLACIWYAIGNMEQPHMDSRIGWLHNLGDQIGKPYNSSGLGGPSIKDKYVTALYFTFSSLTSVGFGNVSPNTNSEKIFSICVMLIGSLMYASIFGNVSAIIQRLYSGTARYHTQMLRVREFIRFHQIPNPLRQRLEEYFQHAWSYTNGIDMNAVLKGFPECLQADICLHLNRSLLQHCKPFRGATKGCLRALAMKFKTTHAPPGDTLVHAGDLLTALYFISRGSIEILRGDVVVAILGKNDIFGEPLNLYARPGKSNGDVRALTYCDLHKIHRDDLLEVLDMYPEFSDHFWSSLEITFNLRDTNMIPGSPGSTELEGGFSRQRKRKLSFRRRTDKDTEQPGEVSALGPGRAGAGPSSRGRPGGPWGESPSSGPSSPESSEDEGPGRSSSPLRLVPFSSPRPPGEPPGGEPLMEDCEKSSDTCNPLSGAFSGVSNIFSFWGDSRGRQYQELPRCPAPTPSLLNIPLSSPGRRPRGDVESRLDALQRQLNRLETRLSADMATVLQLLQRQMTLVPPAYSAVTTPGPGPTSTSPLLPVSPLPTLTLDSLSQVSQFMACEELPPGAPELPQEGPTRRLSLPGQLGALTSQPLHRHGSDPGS
# experimental protocol: primary screen, population patch clamp on CHO cells stably expressing hERG; higher = less effect of the substance
In all, about 310,000 compounds went through this assay and about 14,000 (4.5%) showed an effect of 50% or more. The effect is printed as a negative number. The full list was thinned out, with strong results kept by preference.
endpoint name: hERG current change (%, negative = inhibition) at 10uM (%)

compound	measured
Cl.OCCNc1nc(Nc2ccc(Br)cc2)nc2ccccc12	-36.3
Cl.Oc1ccccc1Nc1nc(NCc2ccccc2)c2ccccc2n1	-1.42
Cc1ccc(C(=O)c2cc3c(cc2N)OCCO3)cc1	-11.4
CCOC(=O)/C(C#N)=N/Nc1ccc(S(=O)(=O)N2CCc3ccccc32)cc1	2.18
CC(=O)c1c(C)n(CCc2ccc(Cl)cc2)c2ccc(O)cc12	20.8
Cl.c1ccc(CNc2nc(NCc3ccccc3)c3ccccc3n2)cc1	2.65
CC(C)c1ccc(S(=O)(=O)c2cn(Cc3ccc(F)cc3)c3cc4c(cc3c2=O)OCO4)cc1	-1
CC(=O)Nc1cc2c(cc1C(=O)c1ccc(C)cc1)OCCO2	5.77
Cl.OCCNc1nc(Nc2ccc(Cl)c(Cl)c2)nc2ccccc12	14.5
Cc1cc(/C=C2/C(=O)N(C)C(=S)N2C)c(C)n1C1CC1	4.03
Cl.OCCNc1nc(Nc2ccc(O)cc2)nc2ccccc12	-28.6
O=C(c1ccc(F)cc1)c1cn(Cc2ccc(F)cc2)c2cc3c(cc2c1=O)OCCO3	-71.1
CC(C)Oc1ccc(S(=O)(=O)N2CCCCC2)cc1NC(=O)C1CSC2(C)CCC(=O)N12 (centres unmarked)	-20.9
Cl.OCCNc1nc(NCc2ccccc2)c2ccccc2n1	-54.6
CCOC(=O)c1cn(Cc2ccc(C)cc2)c2cc(F)ccc2c1=O	-10.9
Cc1ccc(Cn2cc(S(=O)(=O)c3ccc(C(C)C)cc3)c(=O)c3cc4c(cc32)OCO4)cc1	-8.58
Cc1ccc(Cn2cc(C(=O)NN)c(=O)c3ccc(F)cc32)cc1	-51.6
Cc1ccc(S(=O)(=O)c2cn(Cc3ccc(F)cc3)c3cc4c(cc3c2=O)OCO4)cc1	-55
CNc1nc(NCc2ccccc2)c2ccccc2n1.Cl	-68.1
COc1ccccc1N1CCN(C(=O)COc2ccc(S(=O)(=O)NC(C)C)cc2)CC1	-4.64

====

# target under test: human ether-à-go-go-related gene (hERG) potassium channel (human);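 note: peak tail current of the secondary pulse compared with the same well before compound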
# experimental protocol: primary screen, population patch clamp on CHO cells stably expressing hERG; higher = less effect of the substance
Out of some 310,000 compounds screened, about 14,000 (4.5%) showed an effect of 50% or more. Effects have a minus sign here. The list comes from a sample in which strong results are over-represented; it also holds close analogues and randomly drawn compounds.
endpoint name: hERG current change (%, negative = inhibition) at 10uM (%)

compound	result unit	measured
Cn1cnnc1Sc1ccc(C(=O)NCCC(c2ccccc2)c2ccccc2)cc1[N+](=O)[O-]	%	-74.3
Cc1cc(C)c(S(=O)(=O)N2CCOC2CNC(=O)C(=O)NCCc2ccc(S(N)(=O)=O)cc2)c(C)c1 (stereo not drawn)	%	-17.8
O=C(Nc1ccccn1)C1COc2ccccc2O1 (stereo not drawn)	%	16.1
O=C(N/N=C\c1ccc[nH]1)c1cncc(Br)c1	%	3.82
Cn1nc(C(=O)Nc2nc3ccccc3[nH]2)c2ccccc2c1=O	%	-47.1
Cl.Clc1ccc2nc3c(c(-c4ccccc4)c2c1)CNCC3	%	-37.3
CC1=NNC(=O)C1CCC(=O)N/N=C(\C)c1ccccc1 (stereo not drawn)	%	28.3
CN1CCc2nc3ccc(F)cc3c(C(N)=O)c2C1.Cl	%	-4.4
Cc1cc(C(=O)C(=O)N(C)C)c(C)n1-c1ccc([N+](=O)[O-])cc1	%	-25.7
O=C(O)c1ccccc1NS(=O)(=O)c1cccc2nsnc12	%	18.3
O=c1[nH]ccc2c(O)cccc12	%	20.1
Cn1cnnc1Sc1ccc(C(=O)NCCC23CC4CC(CC(C4)C2)C3)cc1[N+](=O)[O-]	%	12.9
CCC(C)[C@H]1CNC(=O)C(=O)N1CCCc1cc(OC)c(OC)c(OC)c1 (stereo partly drawn)	%	9.16
Cc1cc(C)cc(N=c2c([N+](=O)[O-])nn(-c3cccc(Cl)c3)n2O)c1	%	-6.03
COc1ccccc1OCc1cc(C(=O)NCc2ccc(N3CCCC3=O)cc2)no1	%	13.4
COc1cccc(NC(=S)N2CCC(NC(=O)c3ccco3)CC2)c1	%	-11
Cc1ccc(C)c(OCCC(=O)NNC(=O)Cn2nc(C)cc2C)c1	%	21.8
COc1ccc(-c2nc3c4ccccc4ccn3c2CN2CCCCC2)cc1OC.Cl	%	0.736
CCNC(=O)NC(=O)C(C)OC(=O)Cc1coc2cc3c(cc12)CCC3 (stereo not drawn)	%	26.6
CCCc1ccc(-c2cc(C(=O)N3CCN(c4ccccn4)CC3)c3ccccc3n2)cc1	%	13.4
c1ccc(CSc2nnnn2-c2ccccc2)cc1	%	-3.94
